Cited source for all entries: PubChem BioAssay (NCI)

Test system: UO-31 renal
Assay: NCI-60 one-dose screen, 48 h
Settings: 10 µM unless noted
Compounds without any hit were thinned out: in the full panel of roughly 83,000, 20% have a hit. Active and inactive are the calls of the source. How the source made its calls: active means growth percent below 10; inactive means the rest.
Answer with one of the outcomes given here: T (active), F (inactive)

q: Look up the recorded call for `Cc1cc(C)n(CC(=O)Nc2ccc(-c3nc4ccccc4s3)cc2)n1` in this test.
a: F

q: Which outcome did this test record for the molecule `Cn1cc(-c2cnn3c(N)c(Br)c([C@@H]4CCCNC4)nc23)cn1` ?
a: F

###

Tested on: OVCAR-3 ovarian
Experiment: NCI-60 one-dose screen, 48 h
Settings: 10 µM unless noted
This is part of a sample that, as a whole, favours compounds with a hit. Of some 83,000 tested, about 20% had one in any assay. The source made the active and inactive calls. Rule for the calls: active = growth percent below 10; inactive = the rest.
Log the outcome using a class from True (active), False (inactive)

// known answers, use as guide
{"columns": ["compound", "answer-label"],
 "data": [
  ["CCc1cc2c(c3ccc(C(=O)CBr)cc13)CCCC2", "False"],
  ["O=c1[nH]ccc2c(S(=O)(=O)N3CCCNCC3)cccc12", "False"],
  ["N#Cc1c(NC(=O)c2ccco2)[n+]([O-])c2cc(F)c(F)cc2[n+]1[O-]", "False"],
  ["Cc1nc(NC(=O)N2CCC[C@H]2C(N)=O)sc1-c1ccnc(C(C)(C)C(F)(F)F)c1", "False"],
  ["CCCNC(=O)c1cn2ncnc(Nc3cc(C(=O)NC4CC4)ccc3C)c2c1C", "False"],
  ["O=C1NC(=O)[C@@H](c2cn3c4c(cccc24)CCC3)[C@@H]1c1c[nH]c2ccccc12", "False"],
  ["CCCCn1c(C)nc2ccc(Nc3nc(N4CCN(C)CC4)nc4nc[nH]c34)cc21", "False"],
  ["CN(C)CCOC(=O)Nc1nc2ccc(Sc3ccccc3)cc2[nH]1", "False"],
  ["COc1ccc(-c2cc3c(C)nc(N)nc3n(C3CCC(OCCO)CC3)c2=O)cn1 (centres undefined)", "True"],
  ["O=C1C=CC2(NN=C(c3ccccc3)N2c2ccccc2)c2cccc(O)c21 (centres undefined)", "False"]
]}

q: Hi, sorry to bother you, what did the test record for `CN1CCN(c2ccc(C(=O)Nc3n[nH]c4ccc(Cc5cc(F)cc(F)c5)cc34)c(NC3CCOCC3)c2)CC1` ?
a: False

q: What did the test return for `C=CC[n+]1c(/C=C2\Sc3ccccc3N2C)sc(-c2ccccc2)c1-c1ccccc1` ?
a: False

q: Tell me the recorded outcome of this test for `CC#CC(=O)N1CCC[C@H]1c1nc(-c2ccc(C(=O)Nc3ccccn3)cc2)c2c(N)nccn12` .
a: False

q: Hi team, can someone confirm the assay call for `CC(C)c1cc(CNc2nc(Nc3cc(C4CC4)[nH]n3)cc(N3CCN(C)CC3)n2)on1` ?
a: False

q: Tell me the recorded outcome of this test for `O=C(NC[C@H](O)CO)c1ccncc1Nc1ccc(I)cc1F` .
a: False

q: GET /call?item= `C/C(=N\NC(=O)Cn1c(-c2ccc(S(C)(=O)=O)cc2)nc2ccccc21)c1ccc(Cl)cc1` returns the recorded outcome of this test.
a: False

###

System: T-47D breast
Experiment: NCI-60 one-dose screen, 48 h (100 = growth as untreated, 0 = no growth, -100 = all killed)
Conditions: 10 µM unless noted
Procedure: Growth inhibition of the T-47D human tumor cell line is measured as a screen for anti-cancer activity. Cells are grown in 96 well plates and exposed to the test compound for 48 hours. Compounds are tested at a single concentration, which is 10^-5 M for most compounds. The reported endpoint is percent growth (GI% or GIPRCNT), where numbers from 0 - 100% represent growth inhibition, and numbers from -100% - 0 represent cell death. For example, a value of 40 represents 60% growth inhibition. […]
About 83,000 compounds went through this panel and 20% of them were active in at least one assay; those are over-represented in the sample as a whole.
Some molecules, each annotated with its measured growth.
Write the answer as a number in %, unit excluded.

Example entries begin here.
{"columns": ["molecule", "system-under-test", "units-symbol", "growth"],
 "data": [
  ["Cc1cc2c(F)c(Oc3ncnn4cc(OC[C@@H](C)OC(=O)[C@H](C)N)c(C)c34)ccc2[nH]1", "T-47D breast", "%", 70.5],
  ["Cc1ccc(NC(=O)c2ccc(CN3CCN(C)CC3)cc2)cc1Nc1nc(-c2cccnc2)cs1", "T-47D breast", "%", -9.37],
  ["Cc1cc(-c2cc(O)ccc2Cl)cc2nnc(Nc3ccc(OCCN4CCCC4)cc3)nc12", "T-47D breast", "%", -47.8],
  ["COc1ccc(C2CC(=O)c3c(O)c(OC)c(OC)c(OC)c3O2)cc1O (centres undefined)", "T-47D breast", "%", 65.9],
  ["COc1ccc2c(c1)cn1c3ccc(O)cc3nc(N)c21", "T-47D breast", "%", 37.3],
  ["O=C(Nc1ccc(C(=O)Nc2ccc(C3=NCCCN3)cc2)cc1)Nc1ccc(C2=NCCCN2)cc1", "T-47D breast", "%", 45.2],
  ["Cc1cc(-c2cc(OC(=O)c3ccccc3)ccc2Cl)cc2nnc(Nc3ccc(OCCN4CCCC4)cc3)nc12", "T-47D breast", "%", 91.8],
  ["C#Cc1cccc(Nc2ncnc3cc(OCCOC)c(OCCOC)cc23)c1", "T-47D breast", "%", 30.9],
  ["CNC(=O)c1cc(Oc2ccc(NC(=O)Nc3cc(C(C)(C)C)nn3-c3ccc4ncccc4c3)c(F)c2)ccn1", "T-47D breast", "%", -17.7],
  ["COC(=O)[C@]12CC[C@@H](C)[C@H](C)[C@@H]1C1=CC[C@@H]3[C@@]4(C)C(C#N)=CC(C)=C4CC[C@@]3(C)[C@]1(C)CC2", "T-47D breast", "%", 68.2]
]}

Now for the molecule whose growth we want.
q: Give the observed growth of `COc1ccc(Nc2ncccc2NC(=O)c2cn(Cc3cccc(Oc4ccccc4)c3)nn2)cc1` for T-47D breast.
a: 79.1
